// provenance: paper PMC7089611

Assay: Secondary structural content by CD spectroscopy
Format: physicochemical
Settings: 25 °C, protein 5 μM, 50 mM Tris–HCl pH 7.5, 150 mM NaCl, 0.1% β‐mercaptoethanol, CDSSTR
readout-type: Helix content (%)
The reply should be a number in %, with the unit left off.

Query: Can you look up the measured Helix content of N245–370: truncated C‐terminal domain of the HCoV‐229E N protein, extended C‐terminal tail that includes residue 370 (protein, left off: His6, C-terminal, state not stated) QKPRWKRQPNDDVTSNVTQCFGPRDLDHNFGSAGVVANGVKAKGYPQFAELVPSTAAMLFDSHIVSKESGNTVVLTFTTRVTVPKDHPHLGKFLEELNAFTREMQQHPLLNPSALEFNPSQTSPAT for me?
Response: 46

Query: Thanks! And N245–389: truncated C‐terminal domain of the HCoV‐229E N protein, extended C‐terminal tail that includes residue 389 (protein, left off: His6, C-terminal, state not stated) QKPRWKRQPNDDVTSNVTQCFGPRDLDHNFGSAGVVANGVKAKGYPQFAELVPSTAAMLFDSHIVSKESGNTVVLTFTTRVTVPKDHPHLGKFLEELNAFTREMQQHPLLNPSALEFNPSQTSPATAEPVRDEVSIETDIIDEVN ?
Response: 45

Query: Thanks! And N245–382: truncated C‐terminal domain of the HCoV‐229E N protein, extended C‐terminal tail that includes residue 382 (protein, left off: His6, C-terminal, state not stated) QKPRWKRQPNDDVTSNVTQCFGPRDLDHNFGSAGVVANGVKAKGYPQFAELVPSTAAMLFDSHIVSKESGNTVVLTFTTRVTVPKDHPHLGKFLEELNAFTREMQQHPLLNPSALEFNPSQTSPATAEPVRDEVSIET ?
Response: 43

Query: Thanks! And N245–376: truncated C‐terminal domain of the HCoV‐229E N protein, extended C‐terminal tail that includes residue 376 (protein, left off: His6, C-terminal, state not stated) QKPRWKRQPNDDVTSNVTQCFGPRDLDHNFGSAGVVANGVKAKGYPQFAELVPSTAAMLFDSHIVSKESGNTVVLTFTTRVTVPKDHPHLGKFLEELNAFTREMQQHPLLNPSALEFNPSQTSPATAEPVRD ?
Response: 47
